Numbers sourced from patent US20110135573A1.

Biological target: T1, human MMP-2 (Biomol #SE-237) (human, UniProt P08253 110-452, limits assumed)
T1 construct: also called hMMP-2
T1 sequence (P08253 110-452 limits assumed): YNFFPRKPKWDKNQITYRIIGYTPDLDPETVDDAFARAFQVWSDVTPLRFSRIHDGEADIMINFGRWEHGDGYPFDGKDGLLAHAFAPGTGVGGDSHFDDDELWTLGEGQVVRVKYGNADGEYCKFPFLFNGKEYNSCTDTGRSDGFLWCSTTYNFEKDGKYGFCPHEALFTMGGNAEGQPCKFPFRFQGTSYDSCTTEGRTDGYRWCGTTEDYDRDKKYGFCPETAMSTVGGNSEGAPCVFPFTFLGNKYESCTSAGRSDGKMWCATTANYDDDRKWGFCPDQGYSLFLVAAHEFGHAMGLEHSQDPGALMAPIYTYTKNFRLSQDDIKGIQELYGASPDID
Experiment: Ki,app, enzyme inhibition assay (fluorogenic peptide substrate), small-scale sFab
pKi: −log10 of the molar value.
Listing of recorded pKi by entry.
property: pKi

{"columns": ["binder", "observed_measurement"],
 "data": [
  ["M0301-D12 (Fab, V domains shown, sFab; variable domains only; also called M301-D12) VH: EVQLLESGGGLVQPGGSLRLSCAASGFTFSMYDMWWVRQAPGKGLEWVSVIYSSGGYTSYADSVKGRFTISRDNSKNTLYLQMNSLRAEDTAVYYCAKDRAYGDYVGWNGFDYWGQGTLVTVSS VL: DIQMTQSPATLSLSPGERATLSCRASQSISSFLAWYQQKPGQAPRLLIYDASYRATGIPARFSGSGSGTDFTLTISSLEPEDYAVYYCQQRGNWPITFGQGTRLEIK", 8.92],
  ["M0299-A12 (Fab, V domains shown, sFab; variable domains only; also called M299-A12) VH: EVQLLESGGGLVQPGGSLRLSCAASGFTFSHYPMWWVRQAPGKGLEWVSYISSSGGGTFYADSVKGRFTISRDNSKNTLYLQMNSLRAEDTAVYYCAKDRAYGDYVGWNGFDYWGQGTLVTVSS VL: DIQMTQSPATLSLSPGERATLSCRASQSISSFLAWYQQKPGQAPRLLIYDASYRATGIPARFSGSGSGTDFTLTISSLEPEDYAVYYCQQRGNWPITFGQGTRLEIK", 8.77],
  ["M0301-A09 (Fab, V domains shown, sFab; variable domains only; also called M301-A09) VH: EVQLLESGGGLVQPGGSLRLSCAASGFTFSYYDMWWVRQAPGKGLEWVSVIYPSGGYTAYADSVKGRFTISRDNSKNTLYLQMNSLRAEDTAVYYCAKDRAYGDYVGWNGFDYWGQGTLVTVSS VL: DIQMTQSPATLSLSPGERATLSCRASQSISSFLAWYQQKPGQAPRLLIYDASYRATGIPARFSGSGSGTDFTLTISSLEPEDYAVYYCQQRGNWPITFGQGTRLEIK", 9.30]
]}
